Target: Delta-aminolevulinic acid dehydratase (Escherichia coli (strain K12), UniProt P0ACB2)
Sequence (P0ACB2 whole entry): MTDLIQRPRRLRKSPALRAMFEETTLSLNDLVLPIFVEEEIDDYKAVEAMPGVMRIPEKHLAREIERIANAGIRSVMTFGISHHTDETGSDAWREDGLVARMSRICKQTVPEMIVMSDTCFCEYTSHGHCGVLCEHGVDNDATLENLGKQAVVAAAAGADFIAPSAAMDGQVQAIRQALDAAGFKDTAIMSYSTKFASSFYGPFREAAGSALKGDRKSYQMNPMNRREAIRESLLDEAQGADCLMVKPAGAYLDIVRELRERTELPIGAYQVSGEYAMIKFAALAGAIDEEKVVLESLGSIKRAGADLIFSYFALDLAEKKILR
Assay: PBGS Assay
Conditions: pH 8.1; 37 °C
measured-quantity: pKi
Note: pKi values are expressed as the negative base-10 logarithm of concentration in M.

INSERT INTO assay_data (compound, system, measured_quantity, result_number) VALUES
  ('CC(=O)CCC(=O)O [Substrate analogue, 8]', 'Delta-aminolevulinic acid dehydratase (Escherichia coli (strain K12), UniProt P0ACB2)', 'pKi', 2.66),
  ('O=C(CF)CC[N+](=O)[O-] [Substrate analogue, 18]', 'Delta-aminolevulinic acid dehydratase (Escherichia coli (strain K12), UniProt P0ACB2)', 'pKi', 4.68),
  ('COC(=O)CCC(=O)NCC(=O)CC[N+](=O)[O-] [Substrate analogue, 28]', 'Delta-aminolevulinic acid dehydratase (Escherichia coli (strain K12), UniProt P0ACB2)', 'pKi', 4.70);

For COC(=O)CC[N+](=O)[O-] [Substrate analogue, 19] the compound record lists pKi as 2.73

For record CNC(=O)CCC(=O)O [Substrate analogue, 12] the listed pKi is 1.44

Record CC(=O)OCC(=O)O [Substrate analogue, 13] , field pKi: 1.61

The reported pKi of the compound O=C(O)CCC(=O)CCCCC[N+](=O)[O-] [Substrate analogue, 31] was 2.31

// pKi value for COC(=O)CCC(=O)O [Substrate analogue, 10] : 1.42

Entry COC(=O)CCC(=O)NCC(=O)CCC(=O)O [Substrate analogue, 24] ; pKi = 3.61

The recorded pKi for O=C(O)CCCCNC(=O)CCC(=O)O [Substrate analogue, 32] is 1.64

pKi for O=C(O)CC[N+](=O)[O-] [Substrate analogue, 20] is 1.35

The recorded pKi for CC(=O)NCC(=O)O [Substrate analogue, 15] is 1.73

In plain terms, O=C(O)CCC(=O)CF [Substrate analogue, 9] has a documented pKi of 4.07

Memo: O=C(O)CCCCNC(=O)CC[N+](=O)[O-] [Substrate analogue, 33] , reported pKi: 1.74

// sample NCC(=O)OCC(=O)O [Substrate analogue, 14] , its pKi was 1.74

Entry O=C(O)CCC(=O)O , pKi reported as 1.90

Record summary for CC(=O)CC[N+](=O)[O-] [Substrate analogue, 17] : reported pKi = 4.55
